FYI, the data here is from PubChem BioAssay AID179.

Task for the reader: assign each of the following molecules its reported pIC50.
Test system: CEM cells HIV-1 protection, formazan growth assay
Assay: NCI AIDS Antiviral Assay
Conditions: measured here: growth of uninfected CEM cells
Method: The ability of compounds to protect human CEM cells from HIV-1 infection is measured as a screen for new compounds capable of inhibiting the HIV virus. Five concentrations of drug were tested on uninfected and infected cells and cell growth was measured using a soluble formazan assay. […] Compounds that provided at least 50% protection were retested. Compounds that provided at least 50% protection on retest were listed as moderately active. […]
One number for each entry, as −log10 of the molar value.

CN1C(NN)=NS(=O)(=O)c2ccccc21
4.02
Nc1ccc2nc(NCc3ccc(F)cc3)cnc2c1
4.08
C/C(=N\NC(=S)N1CC2CCC(CC2)C1)c1cccc(C)n1
6.26
COC(=O)N[C@@H]1C[C@H]2CC[C@]1(O[Si](C(C)C)(C(C)C)C(C)C)C(=O)C2
4.78
Cn1cnc([N+](=O)[O-])c1Sc1nc(N)nc2nc[nH]c12
5.47

Go through the list and state pIC50 for each entry.
1. CC1=NNC(=O)C1C1CC(c2c[nH]c3ccccc23)=NN=C1Cl (stereo not given)
2. C=C(C)C#CC1(O)C=C(OC)C(OC)=CC1=O (stereo not given)
3. COc1ccc2c(=O)c(S)coc2c1
4. CCC(=O)N=c1sc(SCc2ccccc2)nn1C(=O)SC (tested in a mixture with another compound)

### Response
1. 4.03
2. 4.68
3. 4.52
4. 4.97

Go through the list and state pIC50 for each entry.
1. CCOC(=O)c1sc2[n+](c1C)C(=O)/C(=C/c1cc(OC)c(OC)c(OC)c1)S2
2. Cc1cc2occ(C)c(=O)c2c2c1OC(C)(C)S2
3. COC1/C=C/OC2(C)Oc3c(C)c(O)c4c(O)c(c(/C=N/N5CCCN(C)CC5)c(O)c4c3C2=O)NC(=O)/C(C)=C\C=C\C(C)C(O)C(C)C(O)C(C)C(OC(C)=O)C1C (stereo not given)
4. NC(Cc1ccc(OCc2ccccc2)cc1)C(=O)NC(Cc1ccccc1)C(=O)Oc1c(Cl)c(Cl)c(Cl)c(Cl)c1Cl (stereo not given)
5. O=C(CNc1cccc([N+](=O)[O-])c1)Nn1c(-c2ccccc2)nc2ccccc2c1=O
6. COc1ccc(N=NC(=O)NC(CC(C)C)C(=O)NC(CC(C)C)C(=O)O)cc1 (stereo not given)
7. Cc1cc(S(=O)(=O)n2ccnc2Oc2cccc(Cl)c2)c(SSc2cc(Cl)c(C)cc2S(=O)(=O)n2ccnc2Oc2cccc(Cl)c2)cc1Cl

### Response
[4.89, 4.29, 4.05, 4.54, 5.98, 5.14, 4.86]

Go through the list and state pIC50 for each entry.
1. COC(=O)c1cc2c(cc1CC(Cc1ccc3c(c1)CCC3)C(=O)OC)CCC2 (stereo not given)
2. CCOC(=O)C1=C(O)c2c(sc(C)c2-c2ccccc2)N(S(=O)(=O)c2ccc(C)cc2)CC1
3. COc1ccc(N2C(=O)C3c4[nH]c5ccccc5c4C4CCCCCCCC4C3C2=O)cc1 (stereo not given)

### Response
1: 3.90; 2: 5.32; 3: 4.09

Record `CCCCNCC(=O)O[C@]1(CC)C(=O)OCc2c1cc1n(c2=O)Cc2cc3ccccc3nc2-1` has CEM cells HIV-1 protection, formazan growth assay pIC50 equal to 7.11
